Molecular target: HLA-A*24 (human)
Test: UV-ligand exchange, anti-b2m ELISA
value kind: peptide exchange yield

// field: peptide exchange yield; key: RYAEEVGIF [SEQ ID NO: 199 peptide …] ; value = 50 to 75%

// field: peptide exchange yield; key: LFIPSSKLLFL [SEQ ID NO: 171 peptide …] ; value = 50 to 75%

// field: peptide exchange yield; key: HYSQELSLLYL [SEQ ID NO: 158 peptide …] ; value = > 75%

// field: peptide exchange yield; key: TYIESASEL [SEQ ID NO: 279 peptide …] ; value = 50 to 75%

// field: peptide exchange yield; key: VYTLDIPVL [SEQ ID NO: 160 peptide …] ; value = > 75%

// field: peptide exchange yield; key: VYEDQVGKF [SEQ ID NO: 170 peptide …] ; value = 20 to 49%

// field: peptide exchange yield; key: VYGFQWRHF [SEQ ID NO: 276 peptide …] ; value = > 75%

// field: peptide exchange yield; key: EFGSLHLEFL [SEQ ID NO: 194 peptide …] ; value = < 20%

// field: peptide exchange yield; key: YYLEVGKTLI [SEQ ID NO: 211 peptide …] ; value = > 75%

// field: peptide exchange yield; key: TYTTVPRVAF [SEQ ID NO: 172 peptide …] ; value = > 75%

// field: peptide exchange yield; key: QYLGQIQHI [SEQ ID NO: 268 peptide …] ; value = 50 to 75%

// field: peptide exchange yield; key: KYTSWYVAL [SEQ ID NO: 228 peptide …] ; value = > 75%

// field: peptide exchange yield; key: LYLDKATLI [SEQ ID NO: 198 peptide …] ; value = 50 to 75%

// field: peptide exchange yield; key: YYVESGKLF [SEQ ID NO: 166 peptide …] ; value = > 75%

// field: peptide exchange yield; key: IFLDYEAGTLSF [SEQ ID NO: 227 peptide …] ; value = > 75%

// field: peptide exchange yield; key: IYATEAHVF [SEQ ID NO: 201 peptide …] ; value = 50 to 75%

// field: peptide exchange yield; key: KYQDILETI [SEQ ID NO: 168 peptide …] ; value = > 75%

// field: peptide exchange yield; key: VYQGHTALL [SEQ ID NO: 277 peptide …] ; value = > 75%

// field: peptide exchange yield; key: QYLENLEKL [SEQ ID NO: 224 peptide …] ; value = 50 to 75%

// field: peptide exchange yield; key: HYPPVQVLF [SEQ ID NO: 285 peptide …] ; value = 50 to 75%

// field: peptide exchange yield; key: VYVSDIQEL [SEQ ID NO: 288 peptide …] ; value = 50 to 75%

// field: peptide exchange yield; key: TYELRYFQI [SEQ ID NO: 204 peptide …] ; value = > 75%

// field: peptide exchange yield; key: VFKASKITF [SEQ ID NO: 191 peptide …] ; value = 50 to 75%

// field: peptide exchange yield; key: KYPVEWAKF [SEQ ID NO: 289 peptide …] ; value = > 75%

// field: peptide exchange yield; key: YYKSTSSAF [SEQ ID NO: 218 peptide …] ; value = 50 to 75%

// field: peptide exchange yield; key: TYSVSFPMF [SEQ ID NO: 195 peptide …] ; value = > 75%

// field: peptide exchange yield; key: TYKDEGNDYF [SEQ ID NO: 209 peptide …] ; value = 50 to 75%

// field: peptide exchange yield; key: KYMVYPQTF [SEQ ID NO: 267 peptide …] ; value = > 75%

// field: peptide exchange yield; key: EYSLFPGQVVI [SEQ ID NO: 197 peptide …] ; value = 50 to 75%

// field: peptide exchange yield; key: FYSRLLQKF [SEQ ID NO: 203 peptide …] ; value = 50 to 75%

// field: peptide exchange yield; key: LYIDRPLPYL [SEQ ID NO: 196 peptide …] ; value = 50 to 75%

// field: peptide exchange yield; key: RYSTGLAGNLL [SEQ ID NO: 221 peptide …] ; value = 50 to 75%
